# System under test: full-length recombinant human FYN A (Homo sapiens (Human))
# Assay summary: ADP-Glo Kinase Assay of FYN kinase inhibition
# Format: biochemical
# Conditions: primary screen, initial compounds
Measurement kind: IC50
Value and unit, in that order.

Worked cases, answers included:
- Molecule: "COc1ccc(-c2cnc3sc(NCc4ccncc4)nn23)cc1OC [Compound 574]"
  IC50: "2.13 µM"
- Molecule: "COCOc1ccc(-c2cc(-c3cc(OC)c(OC)c(OC)c3)cnc2N)cc1 [382_0341_0087]"
  IC50: "1.9 µM"
- Molecule: "COc1cncc(-c2cnc3ccc(Cc4ccccc4)nn23)c1 [Compound 467]"
  IC50: "2.67 µM"
- Molecule: "COc1cc(-c2ccnc3[nH]nc(C4CCNCC4)c23)ccc1O [Compound 514]"
  IC50: "11.9 µM"
- Molecule: "COc1cncc(-c2cnc3sc(NCC4CCOCC4)nn23)c1 [Compound 587]"
  IC50: "0.384 µM"
- Molecule: "COc1cc(-c2cnc3cnc(-c4cccnc4)cn23)ccc1O [388_0314_0071]"
  IC50: "3.07 µM"
- Molecule: "c1cc(-c2cn3c(-c4ccsc4)cnc3cn2)cs1 [Compound 227]"
  IC50: "8.47 µM"
- Molecule: "NC(=O)c1cccc(-c2ccc3ncc(-c4ccncc4)n3n2)c1 [Compound 313]"
  IC50: "1.2 µM"

# next molecule below
According to the records, this molecule CNc1ccc2ncc(-c3ccccc3O)n2n1 [Compound 437_0340] displays IC50 of 1.13 µM

----------
# System under test: full-length recombinant human FYN A (Homo sapiens (Human), UniProt P06241)
# Sequence (P06241 whole entry): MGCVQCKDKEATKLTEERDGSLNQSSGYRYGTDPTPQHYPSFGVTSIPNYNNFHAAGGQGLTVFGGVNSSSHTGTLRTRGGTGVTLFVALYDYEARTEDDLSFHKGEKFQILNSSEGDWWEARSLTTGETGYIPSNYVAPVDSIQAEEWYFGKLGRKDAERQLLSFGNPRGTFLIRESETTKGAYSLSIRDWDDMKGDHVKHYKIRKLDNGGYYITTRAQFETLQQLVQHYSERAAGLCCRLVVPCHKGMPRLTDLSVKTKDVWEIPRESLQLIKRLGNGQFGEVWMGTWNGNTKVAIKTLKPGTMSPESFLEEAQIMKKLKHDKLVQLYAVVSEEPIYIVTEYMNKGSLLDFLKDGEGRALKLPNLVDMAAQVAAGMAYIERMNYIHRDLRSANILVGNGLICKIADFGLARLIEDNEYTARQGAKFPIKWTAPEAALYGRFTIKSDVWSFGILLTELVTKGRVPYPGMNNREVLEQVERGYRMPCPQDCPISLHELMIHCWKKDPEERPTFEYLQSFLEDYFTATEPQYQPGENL
# Assay summary: ADP-Glo Kinase Assay of FYN kinase inhibition
# Format: biochemical
# Conditions: primary screen, initial compounds
# Lookup of reported pIC50 keyed by entry
Lab note — pIC50 values are minus log10 of concentrations in M.

- Molecule: "COc1cc(-c2cnc3ccc(-c4cccc(C(N)=O)c4)nn23)ccc1O [Compound 476]"
  Recorded value: 6.65
- Molecule: "COCOc1ccc(-c2cc(-c3cccc(NC(C)=O)c3)cnc2N)cc1 [382_0341_0081]"
  Recorded value: 5.81
- Molecule: "NC(=O)c1ccc(-c2cnc3ccc(Cc4ccccc4)nn23)cc1 [Compound 460]"
  Recorded value: 6.15

pIC50 on full-length recombinant human FYN A (Homo sapiens (Human), UniProt P06241) for CC(=O)c1cccc(-c2cnc3ccc(-c4cccc(N)c4)nn23)c1 [Compound 393] is 5.95

Note to self: pIC50 of Oc1cccc(-c2ccnc3[nH]nc(-c4ccc5c(c4)OCO5)c23)c1 [Compound 517] with full-length recombinant human FYN A (Homo sapiens (Human), UniProt P06241) was 5.20

pIC50 for full-length recombinant human FYN A (Homo sapiens (Human), UniProt P06241) with input COc1ccc(CNc2nn3c(-c4cncc(OC)c4)cnc3s2)cc1 [Compound 588] equals 5.02

----------
# System under test: full-length recombinant human FYN A (Homo sapiens (Human), UniProt P06241)
# Assay summary: ADP-Glo Kinase Assay of FYN kinase inhibition
# Format: biochemical
# Conditions: primary screen, initial compounds
In this section we review reported pIC50 values for a set of compounds.
Field pIC50 (float): negative decimal logarithm of the concentration in molar.

Worked examples follow.
- Compound: "COc1ccc(CNc2nn3c(-c4cccc(C(=O)N(C)C)c4)cnc3s2)cc1"
  pIC50: 5.63
- Compound: "NC(=O)c1cccc(-c2cn3c(-c4cccc(O)c4)cnc3cn2)c1"
  pIC50: 5.80
- Compound: "OCc1ccc(-c2ccc3ncc(-c4cccc(CO)c4)n3n2)cc1"
  pIC50: 5.65
- Compound: "CN1CCN(C(=O)c2cccc(-c3cnc(N)c(-c4cccc(N(C)C)c4)c3)c2)CC1"
  pIC50: 5.35

Now for the compound whose pIC50 we want.
pIC50 reading for OCc1cccc(-c2cnc3ccc(Cc4ccc(F)cc4)nn23)c1 : 5.40

----------
# System under test: full-length recombinant human FYN A (Homo sapiens (Human), UniProt P06241)
# Assay summary: ADP-Glo Kinase Assay of FYN kinase inhibition
# Assay type: biochemical
# Conditions: secondary screen, re-synthesized and expanded compounds
Measurement kind: IC50 (nM)
Give your result in nM as a bare value.

- Molecule: "COc1cncc(-c2cnc3sc(NC4CCC(O)CC4)nn23)c1 (centres unmarked) [BF000802724]"
  IC50 [nM]: 301
- Molecule: "COc1ccc(-c2cnc3ccc(NCc4cccs4)nn23)cc1OC [BF000146992]"
  IC50 [nM]: 721
- Molecule: "COc1cncc(-c2cnc3sc(NCc4cccs4)nn23)c1 [BF000714968]"
  IC50 [nM]: 437
- Molecule: "COc1cc(-c2cnc3ccc(-c4cccc(NC(C)=O)c4)nn23)ccc1O [BF000726454]"
  IC50 [nM]: 104

Next, consider the following molecule.
Documented IC50 of CN(C)CCNC(=O)c1ccc(-c2cn3c(-c4ccc(Oc5ccccc5)cc4)cnc3cn2)cc1 [BF000334031] : 222

----------
# System under test: full-length recombinant human FYN A (Homo sapiens (Human), UniProt P06241)
# Assay summary: ADP-Glo Kinase Assay of FYN kinase inhibition
# Format: biochemical
# Conditions: primary screen, initial compounds
Measurement kind: IC50 (nM)
Dear colleague, please return just the value in nM, with no unit written.

Worked set:
- Entry smiles: "CCCNc1ccc2ncc(-c3cccc(N)c3)n2n1"
  IC50 [nM]: 932
- Entry smiles: "c1cncc(-c2cnc3sc(NCc4cccs4)nn23)c1"
  IC50 [nM]: 1940
- Entry smiles: "COc1cc(-c2n[nH]c3nccc(-c4ccc(C(=O)N(C)C)cc4)c23)cc(OC)c1OC"
  IC50 [nM]: 11100

IC50 on full-length recombinant human FYN A (Homo sapiens (Human), UniProt P06241) for CN1CCN(c2ccc(-c3cn4c(-c5ccc(O)cc5)cnc4cn3)cn2)CC1 is 2210

Tested on full-length recombinant human FYN A (Homo sapiens (Human), UniProt P06241): CN(C)CCNC(=O)c1cccc(-c2cnc3ccc(-c4ccc5c(c4)OCO5)nn23)c1 . Observed IC50: 2020

Measured IC50 (full-length recombinant human FYN A (Homo sapiens (Human), UniProt P06241)), entry COc1ccc(-c2cnc3sc(NCC(C)C)nn23)cc1OC : 2750

----------
# System under test: full-length recombinant human FYN A (Homo sapiens (Human))
# Assay summary: ADP-Glo Kinase Assay of FYN kinase inhibition
# Type: biochemical
# Conditions: secondary screen, re-synthesized and expanded compounds
# Description: The chemical library was comprised of the SoftFocus ATP-competitive hinge binding compounds described by Harris, C. J., Hill, R. D., Sheppard, D. W., et al., The Design and Application of Target-Focused Compound Libraries. Combinatorial Chemistry and High Throughput Screening 14:521-31 (2011). […]
Measurement kind: pIC50
Please treat pIC50 as minus the base-10 logarithm of the molar concentration.

Example entries and their recorded answers appear below.
- Compound: "COc1ccc(-c2ccc3ncc(-c4cccc(NC(C)=O)c4)n3n2)cc1OC [BF000726345]"
  pIC50: 6.50
- Compound: "COc1cc(-c2ccc3ncc(-c4ccc(O)c(OC)c4)n3n2)ccc1O [BF000817186]"
  pIC50: 7.53
- Compound: "CC(=O)c1cccc(-c2cnc3ccc(-c4cccc(CO)c4)nn23)c1 [BF000726471]"
  pIC50: 6.54

Just so you know, measured pIC50 for O=C(NCCO)c1ccc(-c2cn3c(-c4ccc(Oc5ccccc5)cc4)cnc3cn2)cc1 [BF000334032] came out at 6.33

Measured pIC50 of COc1cc(-c2cnc3ccc(N[C@H](CO)C(C)C)nn23)ccc1O [BF000146319] : 6.35

----------
# System under test: full-length recombinant human FYN A (Homo sapiens (Human), UniProt P06241)
# Assay summary: ADP-Glo Kinase Assay of FYN kinase inhibition
# Assay type: biochemical
# Conditions: secondary screen, re-synthesized and expanded compounds
Measurement kind: pIC50
Answer as the number alone; pIC50 is minus log10 of concentration in mol/L.

These recorded examples may help you get a feel for the data.
- Entry smiles: "COc1cc(-c2cnc3sc(NCC4CCOCC4)nn23)ccc1O"
  Recorded value: 6.15
- Entry smiles: "COc1cc(-c2cc(-c3ccccc3)cnc2N)cc(OC)c1OC"
  Recorded value: 5.88
- Entry smiles: "COc1cc(-c2cnc(N)c(-c3ccc(O)cc3)c2)cc(OC)c1OC"
  Recorded value: 6.54

// switching to the query molecule
Note to self: pIC50 recorded for COc1cncc(-c2cnc3sc(NCc4ccccc4)nn23)c1 was 6.66

----------
# System under test: full-length recombinant human FYN A (Homo sapiens (Human))
# Assay summary: ADP-Glo Kinase Assay of FYN kinase inhibition
# Format: biochemical
# Conditions: primary screen, initial compounds
Form field: pIC50 (one value per entry).
pIC50 here: minus log base 10 of the concentration, concentration in moles per litre.

Reference set (5 entries):
- Compound: "OCc1cccc(-c2cnc3ccc(-c4cccnc4)nn23)c1"
  Recorded value: 5.69
- Compound: "OCc1cccc(-c2ccc3ncc(-c4ccccc4)n3n2)c1"
  Recorded value: 5.71
- Compound: "COc1cc(-c2n[nH]c3nccc(-c4cccc(F)c4)c23)cc(OC)c1OC"
  Recorded value: 5.28
- Compound: "COc1ccc(-c2cnc3ccc(NC4CCOCC4)nn23)cc1OC"
  Recorded value: 6.26
- Compound: "CC(=O)Nc1cccc(-c2ccc3ncc(-c4cccc(CO)c4)n3n2)c1"
  Recorded value: 5.79

Quick note, pIC50 for Oc1ccc(-c2cnc3sc(NC4CCC(O)CC4)nn23)cc1 (stereo not shown) landed at 5.42
